biological target: HLA-A*01:01; experiment: IEDB peptide-MHC binding, purified MHC/direct/fluorescence; filed as Kd, often an IC50 or EC50 that approximates it; bounds were set here for any values at or beyond the usual limits of such assays; settings: source organism: Coxiella burnetii
pKd: −log10 of the molar value.
parameter measured: pKd

Inquiry: Please look up its pKd: RFLTHYFTK
Reply text: ≤ 4.70

* * *

biological target: HLA-A*01:01; assay: IEDB peptide-MHC binding, purified MHC/competitive/radioactivity; filed as Kd, often an IC50 or EC50 that approximates it; bounds were set here for any values at or beyond the usual limits of such assays; settings: source organism: Dengue virus 4 Philippines/H241/1956
Give Kd for every item shown.
Numeric answer plus unit only.

Give Kd for all sequences that follow.
1. RTPQDNQLIY
2. LALITVSGLY

Reply text:
1. 0.919 µM
2. 12.7 µM

* * *

Give Kd for every item shown.
target: HLA-C*06:02; test: IEDB peptide-MHC binding, purified MHC/competitive/fluorescence; filed as Kd, often an IC50 or EC50 that approximates it; bounds were set here for any values at or beyond the usual limits of such assays; details: source organism: Yersinia pestis Nepal516
Numbers only, in nM.

>  <polymer sequence>
FYFNWNTPI

>  <test target>
HLA-C*06:02

>  <number>
33.9

$$$$

Please turn your attention to the following entry.
Inquiry: Please look up its Kd: YRYCHQLAL
Reply text: 1.8

* * *

target: HLA-A*02:06; experiment: IEDB peptide-MHC binding, purified MHC/competitive/radioactivity; filed as Kd, often an IC50 or EC50 that approximates it; bounds were set here for any values at or beyond the usual limits of such assays; settings: source organism: Vaccinia virus WR
parameter measured: pKd
Give bare numbers, as −log10 of the molar value.

Below, each entry is followed by its recorded pKd result.
>  <polymer sequence>
VTTNNLLEQL

>  <pKd>
5.23

$$$$
>  <polymer sequence>
SAVFKDSFL

>  <pKd>
5.94

$$$$
>  <polymer sequence>
STVDVRNIV

>  <pKd>
5.79

$$$$
>  <polymer sequence>
NILMDSIFV

>  <pKd>
6.77

$$$$

Please turn your attention to the following entry.
Inquiry: Please look up its pKd: ITETIPIGM
Reply text: 5.11

* * *

molecular target: HLA-B*48:01; test: IEDB peptide-MHC binding, purified MHC/direct/fluorescence; filed as Kd, often an IC50 or EC50 that approximates it; bounds were set here for any values at or beyond the usual limits of such assays; conditions: source organism: Mycobacterium tuberculosis
pKd: −log10 of the molar value.
parameter measured: pKd

Inquiry: Please look up its pKd: KPARGGSSI
Reply text: ≤ 4.70

* * *

target: HLA-A*02:12; test: IEDB peptide-MHC binding, purified MHC/direct/fluorescence; filed as Kd, often an IC50 or EC50 that approximates it; bounds were set here for any values at or beyond the usual limits of such assays; details: source organism: Campylobacter jejuni
parameter measured: Kd

Inquiry: Please look up its Kd: SFWFFHPPY
Reply text: ≥ 20 µM

* * *

target: HLA-A*69:01; experiment: IEDB peptide-MHC binding, purified MHC/direct/fluorescence; filed as Kd, often an IC50 or EC50 that approximates it; bounds were set here for any values at or beyond the usual limits of such assays; settings: source organism: Mammarenavirus lassaense
parameter measured: Kd

Inquiry: Please look up its Kd: SHGIDVTDL
Reply text: ≥ 20 µM

* * *

biological target: HLA-A*32:07; assay: IEDB peptide-MHC binding, purified MHC/competitive/fluorescence; filed as Kd, often an IC50 or EC50 that approximates it; bounds were set here for any values at or beyond the usual limits of such assays; details: source organism: Yersinia pestis Nepal516
parameter measured: Kd (nM)
One number for each entry, in nM.

>  <polymer sequence>
FYFNWNTPI

>  <number>
0.2

$$$$

Please turn your attention to the following entry.
Inquiry: Please look up its Kd: MPFAWQFGF
Reply text: 5.6

* * *

target: HLA-A*30:01; assay: IEDB peptide-MHC binding, purified MHC/direct/fluorescence; filed as Kd, often an IC50 or EC50 that approximates it; bounds were set here for any values at or beyond the usual limits of such assays; conditions: source organism: Escherichia coli O157:H7
parameter measured: pKd
Answers are plain numbers, as −log10 of the molar value.

Inquiry: Form field - read-out: pKd; system: HLA-A*30:01; submitted item: ITAGYNRYY
Reply text: 5.67

* * *

target: HLA-A*31:01; assay: IEDB peptide-MHC binding, purified MHC/direct/fluorescence; filed as Kd, often an IC50 or EC50 that approximates it; bounds were set here for any values at or beyond the usual limits of such assays; details: source organism: Haemophilus influenzae
parameter measured: Kd

Inquiry: Please look up its Kd: IMDEPTSSL
Reply text: ≥ 20 µM

* * *

target: HLA-A*31:01; experiment: IEDB peptide-MHC binding, purified MHC/direct/fluorescence; filed as Kd, often an IC50 or EC50 that approximates it; bounds were set here for any values at or beyond the usual limits of such assays; conditions: source organism: Camelpox virus CMS
parameter measured: Kd
Numeric answer plus unit only.

Inquiry: Please look up its Kd: HYRPYHYYH
Reply text: 3.2 nM

* * *

biological target: HLA-B*39:01; assay: IEDB peptide-MHC binding, purified MHC/direct/fluorescence; filed as Kd, often an IC50 or EC50 that approximates it; bounds were set here for any values at or beyond the usual limits of such assays; conditions: source organism: Campylobacter jejuni
parameter measured: Kd

Inquiry: Please look up its Kd: SFWFFHPPY
Reply text: ≥ 20 µM

* * *

molecular target: HLA-C*06:02; assay: IEDB peptide-MHC binding, purified MHC/direct/fluorescence; filed as Kd, often an IC50 or EC50 that approximates it; bounds were set here for any values at or beyond the usual limits of such assays; conditions: source organism: Variola virus
parameter measured: Kd (µM)
Give bare numbers, in µM.

Inquiry: Please look up its Kd: FQYLLPGFVL
Reply text: 8.62

* * *

molecular target: HLA-A*26:01; assay: IEDB peptide-MHC binding, purified MHC/competitive/radioactivity; filed as Kd, often an IC50 or EC50 that approximates it; bounds were set here for any values at or beyond the usual limits of such assays; details: source organism: Mammarenavirus machupoense
parameter measured: Kd

Inquiry: Form field - read-out: Kd; system: HLA-A*26:01; submitted item: RCWLIRNGSY
Reply text: ≥ 69.7 µM

* * *

target: HLA-B*35:01; experiment: IEDB peptide-MHC binding, purified MHC/competitive/radioactivity; filed as Kd, often an IC50 or EC50 that approximates it; bounds were set here for any values at or beyond the usual limits of such assays; conditions: source organism: Vaccinia virus WR
parameter measured: pKd
Answers are plain numbers, as −log10 of the molar value.

>  <polymer sequence>
YPSMFTLRHI

>  <pKd>
6.35

$$$$
>  <polymer sequence>
KPVSDLYTSM

>  <pKd>
7.46

$$$$
>  <polymer sequence>
LPESDLDKVY

>  <pKd>
7.10

$$$$

Please turn your attention to the following entry.
Inquiry: Please look up its pKd: YPDLNFDNTY
Reply text: 7.74

* * *

biological target: HLA-B*40:01; experiment: IEDB peptide-MHC binding, purified MHC/direct/fluorescence; filed as Kd, often an IC50 or EC50 that approximates it; bounds were set here for any values at or beyond the usual limits of such assays; details: source organism: Camelpox virus M-96
pKd: −log10 of the molar value.
parameter measured: pKd

Inquiry: Please look up its pKd: RVATENIAV
Reply text: ≤ 4.70

* * *

target: HLA-A*11:01; test: IEDB peptide-MHC binding, purified MHC/direct/fluorescence; filed as Kd, often an IC50 or EC50 that approximates it; bounds were set here for any values at or beyond the usual limits of such assays; details: source organism: H9N2 subtype Influenza A virus (A/swine/Korea/S83/2004(H9N2))
parameter measured: Kd

Inquiry: Please look up its Kd: HFQKDAKVL
Reply text: ≥ 20 µM

* * *

biological target: HLA-B*08:01; assay: IEDB peptide-MHC binding, purified MHC/competitive/fluorescence; filed as Kd, often an IC50 or EC50 that approximates it; bounds were set here for any values at or beyond the usual limits of such assays; details: source organism: Shigella boydii Sb227
parameter measured: Kd (nM)
Answers are plain numbers, in nM.

Inquiry: Please look up its Kd: FLSHKIHVI
Reply text: 86.1

* * *

Give pKd for every item shown.
target: HLA-B*54:01; test: IEDB peptide-MHC binding, purified MHC/competitive/radioactivity; filed as Kd, often an IC50 or EC50 that approximates it; bounds were set here for any values at or beyond the usual limits of such assays; conditions: source organism: Vaccinia virus WR
Numbers only, as −log10 of the molar value.

Below, each entry is followed by its recorded pKd result.
>  <polymer sequence>
KPVSDLYTSM

>  <pKd>
4.97

$$$$
>  <polymer sequence>
YPDLNFDNTY

>  <pKd>
5.76

$$$$
>  <polymer sequence>
YPSMFTLRHI

>  <pKd>
7.68

$$$$

Please turn your attention to the following entry.
Inquiry: Please look up its pKd: LPESDLDKVY
Reply text: 4.97
